tested on: DU-145 prostate; test: NCI tumour cell line growth inhibition, 48 h; in the data active = GI50 below about 0.43 µM; inactive = the rest
Allowed answers: true = active, false = inactive

INSERT INTO results (compound, systemundertest, category) VALUES
  ('COc1ccc(C2[C@@H](Cl)C(=O)N2c2cc(OC)c(OC)c(OC)c2)cc1Cl (stereo not given in full)', 'DU-145 prostate', 'true'),
  ('CN(CCCCCl)P(=O)(OCCS(=O)(=O)CC(NC(=O)CCC(N)C(=O)O)C(=O)NC(C(=O)O)c1ccccc1)OCC1OC(n2cc(F)c(=O)[nH]c2=O)CC1O (stereo not given)', 'DU-145 prostate', 'true'),
  ('COc1ccc2c(c1OC)C(=O)OC2C1c2c(c([N+](=O)[O-])c3c(c2OC)OCO3)CCN1C (stereo not given)', 'DU-145 prostate', 'false'),
  ('O=C1NC(=O)C(c2cccc(Cl)c2)=C1Nc1ccc(O)c(Cl)c1', 'DU-145 prostate', 'false');

(Q) Test call for this compound, please: CCCCn1c(=O)c2c(nc3n2CCCN3CCc2ccc(OCC(=O)NCCN(CC)CC)cc2)n(CCCC)c1=O
(A) false

----------
tested on: UO-31 renal; assay: NCI tumour cell line growth inhibition, 48 h
testReadout: TGI

These recorded examples may help you get a feel for the data.
INSERT INTO measurements (molecule, observedresult) VALUES
  ('CCN(c1cccc(NC(=S)Nc2ccccc2N(CC)c2cc(-c3ccccc3)no2)c1)c1cc(-c2ccccc2)no1', '> 100 µM'),
  ('COC(=O)C1=C(C)N2[C@H](C(=O)O)CO[C@@]2(C)[C@H](C(=O)OC)[C@H]1c1cccc([N+](=O)[O-])c1', '> 100 µM');

Give measured TGI for every item shown.
1. O=C(CSC1=NCCN1)Nc1ccccc1
2. CC(C)CN=C(N)N=C(N)N
3. CCC[C@H](C)C[C@H](C)C[C@H](C)/C=C(\C)[C@@H](O)[C@@H](C)C(=O)CC
4. Nc1ccccc1SCc1csc(-c2ccc(Cl)cc2)n1
5. CC(=O)Oc1ccccc1C(=O)/C=C/c1cccc([N+](=O)[O-])c1
6. Nc1ccc(CCN2CCN(CCCc3ccccc3)CC2)cc1
7. Cc1cc(O)c(C(C)C)cc1C1(c2cc(C(C)C)c(O)cc2C)OC(=O)c2ccccc21
8. OC1(c2ccccc2)CSC2=Nc3ccccc3C3CCN1N23 (stereo unspecified)

(A)
["> 100 µM", "> 100 µM", "41.7 µM", "46.6 µM", "2.96 µM", "> 100 µM", "7.04 µM", "28.7 µM"]

Entry Cc1ccc2nc(NC(=O)/C(Cc3nc4ccc(Cl)cc4[nH]c3=O)=N\NC(C)(C)C)sc2c1 ; TGI = > 100 µM

----------
system: NCI-H460 lung; test: NCI tumour cell line growth inhibition, 48 h
Answer each item with its documented TGI.
One number for each entry, in µM.

These recorded examples may help you get a feel for the data.
INSERT INTO assay_data (compound, observedresult) VALUES
  ('Cc1cc(O)c(C(C)C)cc1C1(c2cc(C(C)C)c(O)cc2C)OC(=O)c2ccccc21', 3.99),
  ('Cc1cc(NCCCCCCCNc2cc(C)nc3cc([N+](=O)[O-])ccc23)c2ccc([N+](=O)[O-])cc2n1', 6.36),
  ('COc1cccc(N2C(=O)C3c4[nH]c5ccc(C)cc5c4C4CCC(C(C)(C)C)CC4C3C2=O)c1 (stereo not given)', 4.43),
  ('Cc1ccc(/C=C2\CCCC(CN3CCCCC3)C2=O)cc1 (stereo not given)', 15.9);

Alright, here's another compound for you.
Entry CN1CCN(CC(O)COc2c(Br)c(Br)c(Br)c3c2OC(C)(C)C3)CC1 (stereo not given) ; TGI = 10.6

----------
tested on: SK-MEL-2 melanoma; assay: NCI tumour cell line growth inhibition, 48 h; in the data active = GI50 below about 0.43 µM; inactive = the rest
Allowed answers: active, inactive

Would you please look over these solved cases?
INSERT INTO results (compound, category) VALUES
  ('N#CN1CC[C@H](C(=O)Nc2ncc(-c3ccncc3)s2)C1', 'active'),
  ('COc1ccc2cc(-c3c(-c4ccncc4)nc(-c4ccc(S(C)=O)cc4)n3C)ccc2c1 (configuration not stated)', 'inactive'),
  ('CN1CCC(n2cnc(-c3ccc(F)cc3)c2-c2ccnc(N)n2)CC1', 'inactive'),
  ('O=C(Nc1cccc(Nc2ncc(Br)c(NCCc3cnc[nH]3)n2)c1)N1CCCC1', 'inactive');

(Q) Test call for this compound, please: CCCCCn1sc(=O)n(Cc2ccc(CNC(=O)OCc3ccc4cccc(O)c4n3)cc2)c1=O
(A) inactive

(Q) Test call for this compound, please: CCn1c2ccccc2c2cc(/C=C(/C#N)C(N)=O)ccc21
(A) inactive

(Q) Test call for this compound, please: Cc1nc2ccccc2c(/C=C/c2ccc(Br)cc2)c1C(=O)/C=C/c1ccccc1
(A) inactive

----------
Answer each item with its documented TGI.
tested on: OVCAR-3 ovarian; assay: NCI tumour cell line growth inhibition, 48 h
Numbers only, in µM.

INSERT INTO results (compound, observedresult) VALUES
  ('CC1(C)CCC[C@]2(C)[C@@H](C=O)C(C=O)=CC[C@@H]12', 28);

Give measured TGI for every item shown.
1. C[C@@H]1O[C@@H](O[C@H]2CC[C@@]3(C)[C@H](CCC4[C@@H]3C(O)C[C@]3(C)[C@@H](c5ccc(=O)oc5)CC[C@]43O)C2)[C@H](O)[C@H](O)[C@H]1O (some centres undefined)
2. COC(=O)c1c(O)ccc2c1C1(Cc3ccccc3C1=O)C(O)O2 (centres undefined)
3. O=C(Nc1cccc(Nc2ncc(Br)c(NCCc3cnc[nH]3)n2)c1)N1CCCC1

(A)
1. 0.00597
2. 43.9
3. 24.3

----------
test system: RXF 393 renal; experiment: NCI tumour cell line growth inhibition, 48 h
testReadout: TGI (µM)
One number for each entry, in µM.

These recorded examples may help you get a feel for the data.
INSERT INTO measurements (molecule, unitannotation, observedresult) VALUES
  ('CC(C)(CC(O)C#N)/[N+]([O-])=[N+](\[O-])C(C)(C)CC(O)C#N (stereo not drawn)', 'µM', 35.4),
  ('N#Cc1c(N)[nH]c2ccc(Sc3ccccc3)cc12', 'µM', 5.48),
  ('CCCCCn1sc(=O)n(Cc2ccc(CNC(=O)OCc3ccc4cccc(O)c4n3)cc2)c1=O', 'µM', 2.67);

Alright, here's another molecule for you.
Entry Cc1nc2ccccc2c(/C=C/c2ccc(Br)cc2)c1C(=O)/C=C/c1ccccc1 ; TGI = 3.07

----------
tested on: HS 578T breast; assay: NCI tumour cell line growth inhibition, 48 h
testReadout: TGI

These recorded examples may help you get a feel for the data.
INSERT INTO results (molecule, testreadout, observedresult) VALUES
  ('COc1ccc(OC)c(C2SCC(=O)N2NC(=O)C(O)c2ccccc2)c1 (stereo not drawn)', 'TGI', '> 100 µM'),
  ('Cc1ccc2c(=O)cc(-c3ccc(-c4ccccc4)s3)[nH]c2n1', 'TGI', '> 72.6 µM'),
  ('N#C/C(=C\c1c[nH]c2ccccc12)C(=O)c1ccc(O)c(O)c1', 'TGI', '> 100 µM'),
  ('CC1OC(O[C@H]2/C=C/C=C/C=C/C=C/C=C/C=C/C=C/[C@H](C)[C@@H](O)[C@@H](C)[C@H](C)OC(=O)CC(O)CC(O)CCC(O)C(O)CC(O)C[C@]3(O)C[C@H](O)C(C(=O)O)C(C2)O3)C(O)[C@H](N)C1O (stereo partly drawn)', 'TGI', '8.25 µM');

Give measured TGI for every item shown.
1. Cc1ccc(S(=O)(=O)NCCSCCSCCNS(=O)(=O)c2ccc(C)cc2)cc1
2. CCN(c1cccc(NC(=S)Nc2ccccc2N(CC)c2cc(-c3ccccc3)no2)c1)c1cc(-c2ccccc2)no1
3. CC(C)C1=CC23CCC4C(C)(C(=O)O)CCCC4(C)C2CC1C1C(=O)N(c2ccc(C(=O)O)cc2)C(=O)C13 (stereo not drawn)
4. COc1ccc(/C=C2\CN(C)C/C(=C\c3ccc(OC)c(OC)c3OC)C2=O)c(OC)c1OC

(A)
1: > 100 µM; 2: > 100 µM; 3: > 100 µM; 4: > 100 µM

----------
tested on: NCI-H460 lung
Allowed answers: active, inactive

Would you please look over these solved cases?
INSERT INTO results (compound, category) VALUES
  ('COc1ccc(/C=N/NC(=O)Cn2c(-c3ccc(S(C)(=O)=O)cc3)nc3cc(Cl)ccc32)cc1', 'inactive'),
  ('O=C([CH-]C(=O)c1ccccc1)c1ccccc1.O=C([CH-]C(=O)c1ccccc1)c1ccccc1.[OH-].[OH-].[Ti+4]', 'inactive'),
  ('CCn1c2ccccc2c2cc(/C=C(/C#N)C(N)=O)ccc21', 'inactive'),
  ('CC1(C)N=C(N)N=C(N)N1c1ccc(CCCCc2ccc(S(=O)(=O)F)cc2)c(Cl)c1', 'active'),
  ('CC(C)=CCC/C(C)=C/CC/C(C)=C/CC/C=C(\C)CC/C=C(\C)CCC(=O)Nc1ccn(C2OC(CO)C(O)C2(F)F)c(=O)n1 (stereo unspecified)', 'active'),
  ('COc1ccc(OC)c(Cn2cc3c(c2)-c2oncc2CC3)c1', 'inactive'),
  ('CCN1C(=O)N(CC)C2C1NN=c1s/c(=C\c3ccccc3Br)c(=O)n12 (stereo unspecified)', 'active'),
  ('CC1=CC(=O)C(O)C2(C)C1CC(O)C13COC4(C)C(OC(=O)C41)C(O)C23 (stereo unspecified)', 'inactive'),
  ('C[C@@H]1O[C@@H](OC[C@H]2O[C@@H](OCCc3ccc(O)c(O)c3)[C@H](O)[C@@H](O)[C@@H]2OC(=O)/C=C/c2ccc(O)c(O)c2)[C@H](O)[C@H](O)[C@H]1O', 'inactive'),
  ('COc1ccc2c(c1)OC1=C(C(=O)OC1)C2c1cc(OC)c2c(c1)OCO2 (stereo unspecified)', 'active');

(Q) Test call for this compound, please: CN1CCN(CC(O)COc2c(Br)c(Br)c(Br)c3c2OC(C)(C)C3)CC1 (stereo unspecified)
(A) inactive

(Q) Test call for this compound, please: CN1CCC(n2cnc(-c3ccc(F)cc3)c2-c2ccnc(N)n2)CC1
(A) inactive

Cited source for all entries: PubChem BioAssay (NCI)
